Source listed as patent US11618747B2.

# assayed system: full length (FL) LXRα (Homo sapiens, UniProt Q13133)
# Construct: the full length (FL) proteins of LXRα (amino acids 1-447); NP005684; expressed in transfected cells; host or cells: HEK293
# Sequence (Q13133 whole entry, the tested form may be a part): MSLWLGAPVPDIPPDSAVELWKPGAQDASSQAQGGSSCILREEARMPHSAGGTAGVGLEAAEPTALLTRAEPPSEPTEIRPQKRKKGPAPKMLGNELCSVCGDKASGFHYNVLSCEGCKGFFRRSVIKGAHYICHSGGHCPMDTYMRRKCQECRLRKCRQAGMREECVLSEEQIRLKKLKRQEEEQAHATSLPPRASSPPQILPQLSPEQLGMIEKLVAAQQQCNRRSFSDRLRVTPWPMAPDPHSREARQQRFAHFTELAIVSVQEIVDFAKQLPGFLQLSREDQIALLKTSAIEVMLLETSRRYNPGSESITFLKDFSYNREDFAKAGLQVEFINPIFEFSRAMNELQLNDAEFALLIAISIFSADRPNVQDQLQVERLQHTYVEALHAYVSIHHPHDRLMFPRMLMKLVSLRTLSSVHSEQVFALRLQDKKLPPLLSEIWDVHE
# procedure details: LXR Gal4 reporter transient transfection assay (FL-M2H Gal4α)
# Assay type: cell-based
# experimental setup: HEK293 cells, full length LXRα; read-out: FL-M2H Gal4α (EC50 range)
pEC50: −log10 of the molar value.
assay readout: pEC50

molecule: CC(O)(C(=O)O)c1cc(F)c(-c2cccc(-c3c(-c4c(C#N)cccc4C#N)c4cc(F)ccc4n3S(=O)(=O)c3ccc(C(F)F)cc3)c2)c(F)c1 (stereo not drawn)
endpoint result: > 7.00

molecule: N#Cc1cccc(C#N)c1-c1c(-c2cccc(N3CC(C(=O)O)C3)c2)n(S(=O)(=O)c2ccc(C(F)F)cc2)c2ccc(F)cc12
endpoint result: 6.00 to 7.00

molecule: COCc1sccc1-c1c(-c2cccc(N3CC(C(=O)O)C3)c2)n(S(=O)(=O)c2ccc(C)cc2)c2ccc(F)cc12
endpoint result: 6.00 to 7.00

molecule: Cc1ccc(S(=O)(=O)n2c(-c3cccc(N4CC[C@@H](C(=O)O)C[C@H]4C)c3)c(-c3ccsc3C#N)c3cc(F)ccc32)cc1
endpoint result: 6.00 to 7.00

molecule: Cc1ccc(S(=O)(=O)n2c(-c3cccc(C4(C)CC4C(=O)O)c3)c(-c3ccsc3C#N)c3cc(F)ccc32)cc1 (stereo not drawn) [3/1]
endpoint result: 6.00 to 7.00

molecule: N#Cc1scnc1-c1c(-c2cccc(-c3cc(F)c(C(=O)O)cc3Cl)c2)n(S(=O)(=O)c2ccc(C(F)F)cc2)c2ccc(F)cc12
endpoint result: > 7.00
